- Tested On: PAR4 (Homo sapiens, UniProt Q96RI0)
- Construct: expressed in transfected cells; host or cells: HEK293 PAR4 Clone 1.2A (BMS Arctic ID 383940)
- Sequence (Q96RI0 18-385): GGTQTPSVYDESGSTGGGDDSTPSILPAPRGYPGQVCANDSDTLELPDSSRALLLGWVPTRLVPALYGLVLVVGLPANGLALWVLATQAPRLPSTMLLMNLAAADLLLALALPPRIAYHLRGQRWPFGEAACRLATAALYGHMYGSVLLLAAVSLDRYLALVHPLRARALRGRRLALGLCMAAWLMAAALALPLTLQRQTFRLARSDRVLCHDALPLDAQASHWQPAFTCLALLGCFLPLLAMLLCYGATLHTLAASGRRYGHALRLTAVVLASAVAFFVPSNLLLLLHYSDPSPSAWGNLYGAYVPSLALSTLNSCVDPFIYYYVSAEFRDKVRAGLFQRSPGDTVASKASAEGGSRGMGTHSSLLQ
- Test Method Notes: PAR4 FLIPR assay (antagonism of agonist peptide-induced calcium mobilization)
- Type: cell-based
- Text: The FLIPR assay is an exemplary in vitro assay for measuring the activity of the PAR4 antagonists of the present invention. In this assay, intracellular calcium mobilization is induced in PAR4 expressing cells by a PAR4 agonist and calcium mobilization is monitored. HEK293 cells stably expressing PAR4 were generated by a standard method of transfection of human PAR4 (F2R23) cDNA expression vector and selected based on PAR4 protein expression or mRNA expression. […]
Measured Quantity: IC50 (nM)
Express it in nM; write the number only.

# Compound, Tested On, Recorded Result
data = [
    ("COc1cncc(NC(=O)OC[C@H]2COc3c(cc(C)c4nc(-c5cc(C)cc6nc(OC)cnc56)sc34)O2)c1 [Example 43]", "PAR4 (Homo sapiens, UniProt Q96RI0)", 7.9),
    ("COc1cnc2c(-c3nc4c(Cl)cc5c(c4s3)OC[C@H](COC(=O)Nc3cnc(C)c(C)c3)O5)cc(C)cc2n1 [Example 60]", "PAR4 (Homo sapiens, UniProt Q96RI0)", 6.9),
    ("COc1cnc2c(-c3nc4cc(F)c5c(c4s3)C[C@H](COC(=O)Nc3cnc(CCO)nc3)O5)cc(C)cc2n1 [Example 155]", "PAR4 (Homo sapiens, UniProt Q96RI0)", 13),
]

input: What does the record list as IC50 for COc1cnc2c(-c3nc4cc(F)c5c(c4s3)[C@H](C)[C@@H](CO)O5)cc(C#N)cc2n1 [Example 254] ?
output: 0.6

input: # query: IC50 of entry COc1cnc2c(-c3nc4cc(F)c5c(c4s3)C[C@](C)(COC(=O)Nc3cnc(OCCO)nc3)O5)cc(Cl)cc2c1 [Example 286]
output: 1

input: Look at this compound and give its reported IC50. C=Cc1ccc(NC(=O)OC[C@H]2COc3c(ccc4nc(-c5cc(C)cc6nc(OC)cnc56)sc34)O2)cn1 [Example 110]
output: 1.6

input: Query (compound): COc1cnc2c(-c3nc4cc(F)c5c(c4s3)C[C@@H](CNC(=O)Oc3ccc(C)cc3)O5)cc(C)cc2n1 [Example 213] ; field requested: IC50
output: 3.6

input: Endpoint output: IC50 of COc1cnc2c(-c3nc4cc(F)c5c(c4s3)C[C@@H](CNC(=O)Oc3ccc(Cl)cc3)O5)cc(C)cc2n1 [Example 214] . Value?
output: 26

----------
- Tested On: PAR4 (Homo sapiens, UniProt Q96RI0)
- Construct: expressed in transfected cells; host or cells: HEK293 PAR4 Clone 1.2A (BMS Arctic ID 383940)
- Test Method Notes: PAR4 FLIPR assay (antagonism of agonist peptide-induced calcium mobilization)
- Format: cell-based
Flag rule - IC50 less than 3 nM flags 1; the remaining entries get 0.

Consider the following illustrative entries.
# Compound, Classification
rows = [
    ("Cc1cc(-c2nc3c(F)cc4c(c3s2)OC(CO)CO4)c2ncc(OC(F)F)nc2c1 (centres unmarked)", 0),
    ("COc1cnc2c(-c3nc4ccc5c(c4s3)CC(C)(C)O5)cc(C)cc2n1", 0),
    ("COc1cnc2c(-c3nc4ccc5c(c4s3)C[C@@H](CNC(=O)OCC3CCOC3)O5)cc(C)cc2n1 (some centres unmarked)", 0),
    ("COc1cnc2c(-c3nc4c(C)cc5c(c4s3)OCC(COC(=O)Nc3ccc(Cl)nc3)O5)cc(C)cc2n1 (centres unmarked)", 1),
    ("COc1cnc2c(-c3nc4ccc5c(c4s3)C[C@@H](CNC(=O)O[C@@H]3CCOC3)O5)cc(C)cc2n1", 0),
]

input: Strictly below 3 nM: is that where IC50 of COc1cnc2c(-c3nc4c(C)cc5c(c4s3)OCC(COC(=O)Nc3cncc(C(F)(F)F)c3)O5)cc(C)cc2n1 (centres unmarked) sits?
output: 1

input: Hi there! Is IC50 for COc1cnc2c(-c3nc4cc(F)c5c(c4s3)C[C@@H](CNC(=O)OC(C)(C)C)O5)cc(C)cc2n1 below 3 nM, do you know?
output: 0

input: Is IC50 of COC(=O)c1cncc(NC(=O)OCC2COc3c(cc(C)c4nc(-c5cc(C)cc6nc(OC)cnc56)sc34)O2)c1 (centres unmarked) strictly below 3 nM?
output: 0
